Target: Serine/threonine-protein kinase Sgk1 (Homo sapiens)
Sequence (O00141 whole entry): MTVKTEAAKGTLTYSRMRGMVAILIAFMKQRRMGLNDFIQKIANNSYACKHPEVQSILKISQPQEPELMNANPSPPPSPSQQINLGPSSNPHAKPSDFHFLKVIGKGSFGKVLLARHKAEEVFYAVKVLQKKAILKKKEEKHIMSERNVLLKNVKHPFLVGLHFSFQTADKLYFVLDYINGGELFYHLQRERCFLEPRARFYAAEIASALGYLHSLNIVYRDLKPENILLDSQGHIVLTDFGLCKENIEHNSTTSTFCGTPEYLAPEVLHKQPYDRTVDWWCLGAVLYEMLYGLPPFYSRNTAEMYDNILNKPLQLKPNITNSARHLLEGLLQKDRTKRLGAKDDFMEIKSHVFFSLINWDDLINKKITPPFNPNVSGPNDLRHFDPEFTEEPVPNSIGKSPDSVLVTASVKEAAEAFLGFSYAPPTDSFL
Test: Inhibition of recombinant human SGK1 expressed in baculovirus expression system using 5-carboxyfluorescein -RPRAATF-NH2 as substrate preincubated for 30 mins followed by substrate addition in presence of 500 uM ATP and measured after 60 mins by microfluidics assay
quantity.name: IC50 (nM)

The examples below pair each entry with its known result.
compound	quantitative.result
O=C(NCc1nn[nH]n1)c1cc(-c2ccc(NS(=O)(=O)c3cccc(Cl)c3Cl)cc2)nc2[nH]ncc12	813
O=C(NCc1cocn1)c1cc(-c2ccc(NS(=O)(=O)c3cccc(Cl)c3Cl)cc2)nc2[nH]ncc12	327

1: Cc1n[nH]c2nc(-c3ccc(NS(=O)(=O)c4cc(Cl)ccc4F)cc3)nc(OCC3(CN)COC3)c12
2: O=C(NC1CCN(CCO)C1)c1cc(-c2ccc(NS(=O)(=O)c3cccc(Cl)c3Cl)cc2)nc2[nH]ncc12 (racemic)
Prompt: Between the two listed entries 1 and 2 , which has its IC50 at the higher number? Answer = label.
Response: 2
(2: 12 nM, 1: 1 nM)

====

Experiment: Half life in C57BL/6 mouse plasma at 30 mg/kg, po measured after 8 hrs
Format: ADME, organism-based
quantity.name: half-life (h)
Write the number in h without appending the unit.

Prompt: Entry Cc1n[nH]c2nc(-c3ccc(NS(=O)(=O)c4cc(Cl)ccc4F)cc3)nc(OC3CCN(C(C)C)CC3)c12 has what half-life?
Response: 4.8

====

Assay: Ratio of AUC(0 to 24 hrs) in femoral head to plasma in rat measured after 2 hrs
Format: ADME, Bone/Plasma
Settings: read-out: Selectivity ratio
quantity.name: Kp at 2 h
Could you keep your reply to the number by itself?

Prompt: Entry N#Cc1ccc(Cl)cc1S(=O)(=O)Nc1ccc(-c2ncc3c(N)n[nH]c3n2)cc1 has what Kp at 2 h?
Response: 0.047

====

Assay: Cmax in C57BL/6 mouse plasma at 30 mg/kg, po measured after 8 hrs
Type: ADME, organism-based
Set-up: route oral, time 8 hrs, dose 30 mg/kg
quantity.name: Cmax (ng/mL)
Write the number in ng/mL without appending the unit.

Prompt: Entry Cc1n[nH]c2nc(-c3ccc(NS(=O)(=O)c4cc(Cl)ccc4F)cc3)nc(OC3CCN(C(C)C)CC3)c12 has what Cmax?
Response: 2200

====

Experiment: Distribution coefficient, logD of compound at pH 7.4 by chromatographic analysis
Assay type: physicochemical
Details: octanol/water
quantity.name: chromatographic logD

compound	quantitative.result
Cc1n[nH]c2nc(-c3ccc(NS(=O)(=O)c4cc(Cl)ccc4F)cc3)nc(OC3CCN(C(C)C)CC3)c12	1.3

P: Cc1n[nH]c2nc(-c3ccc(NS(=O)(=O)c4cc(Cl)ccc4F)cc3)nc(OC3CCN(C4CC4)CC3)c12
Q: N#Cc1ccc(Cl)cc1S(=O)(=O)Nc1ccc(-c2ncc3c(N)n[nH]c3n2)cc1
Prompt: Between the two listed entries P and Q , which has its chromatographic logD at the higher number? Answer = label.
Response: P
(P: 3.4, Q: 1.13)

====

Assay: Metabolic stability in CD1 mouse liver microsomes assessed as compound degradation in presence of NADPH measured after 20 mins
Type: ADME, Microsome
Details: read-out: Drug degradation
quantity.name: metabolised at 20 min (%)

compound	quantity.name	quantitative.result
Cc1n[nH]c2nc(-c3ccc(NS(=O)(=O)c4cc(Cl)ccc4F)cc3)nc(OC3CCN(C(C)C)CC3)c12	metabolised at 20 min	15

A: Cc1n[nH]c2nc(-c3ccc(NS(=O)(=O)c4cc(Cl)ccc4F)cc3)nc(OC3CCN(C4CC4)CC3)c12
B: N#Cc1ccc(Cl)cc1S(=O)(=O)Nc1ccc(-c2ncc3c(N)n[nH]c3n2)cc1
C: O=S(=O)(Nc1ccc(-c2nc(O[C@H]3CC[C@H](O)CC3)c3cn[nH]c3n2)cc1)c1cc(Cl)ccc1F
Prompt: // ascending sort on recorded metabolised at 20 min Returns: the labels arranged in the requested order.
Response: B, C, A
(B: 3%, C: 6%, A: 11%)

====

Biological target: Serine/threonine-protein kinase Sgk1 (Homo sapiens)
Sequence (O00141 whole entry): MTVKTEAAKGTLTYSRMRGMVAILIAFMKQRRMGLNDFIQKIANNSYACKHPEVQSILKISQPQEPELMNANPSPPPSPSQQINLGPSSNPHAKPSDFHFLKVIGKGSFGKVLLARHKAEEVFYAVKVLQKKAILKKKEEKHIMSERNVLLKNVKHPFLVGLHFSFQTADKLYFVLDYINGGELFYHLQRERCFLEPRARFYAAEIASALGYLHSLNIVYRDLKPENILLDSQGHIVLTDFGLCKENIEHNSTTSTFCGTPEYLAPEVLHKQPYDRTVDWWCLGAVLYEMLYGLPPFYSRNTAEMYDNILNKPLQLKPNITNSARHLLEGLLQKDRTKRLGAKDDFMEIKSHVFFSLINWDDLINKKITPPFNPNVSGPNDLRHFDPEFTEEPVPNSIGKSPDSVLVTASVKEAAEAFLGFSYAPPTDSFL
Experiment: Inhibition of recombinant human SGK1 expressed in baculovirus expression system using 5-carboxyfluorescein -RPRAATF-NH2 as substrate preincubated for 30 mins followed by substrate addition in presence of 500 uM ATP and measured after 60 mins by microfluidics assay
pIC50: −log10 of the molar value.
quantity.name: pIC50

molecule	pIC50
Cc1n[nH]c2nc(-c3ccc(NS(=O)(=O)c4cc(Cl)ccc4F)cc3)nc(OC3CC(C)(C)N(C)C(C)(C)C3)c12	8.52
CCN1CCC(CNC(=O)c2cc(-c3ccc(NS(=O)(=O)c4cccc(Cl)c4Cl)cc3)nc3[nH]ncc23)C1 (racemic)	6.96

a: O=C(NCc1ncc[nH]1)c1cc(-c2ccc(NS(=O)(=O)c3cccc(Cl)c3Cl)cc2)nc2[nH]ncc12
b: O=C(NC1CCN(CC2CC2)C1)c1cc(-c2ccc(NS(=O)(=O)c3cccc(Cl)c3Cl)cc2)nc2[nH]ncc12 (racemic)
Prompt: Between the two listed entries a and b , which has its pIC50 at the higher number? Answer = label.
Response: b
(b: 7.46, a: 6.89)

====

Experiment: Initial plasma concentration in C57BL/6 mouse at 3 mg/kg, iv
Format: ADME, organism-based
quantity.name: C0 (ng/mL)
Write the number in ng/mL without appending the unit.

Prompt: Entry Cc1n[nH]c2nc(-c3ccc(NS(=O)(=O)c4cc(Cl)ccc4F)cc3)nc(OC3CCN(C(C)C)CC3)c12 has what C0?
Response: 2200

====

Experiment: Tmax in C57BL/6 mouse plasma at 30 mg/kg, po
Assay type: ADME, organism-based
quantity.name: Tmax (h)
Write the number in h without appending the unit.

Prompt: Entry Cc1n[nH]c2nc(-c3ccc(NS(=O)(=O)c4cc(Cl)ccc4F)cc3)nc(OC3CCN(C(C)C)CC3)c12 has what Tmax?
Response: 3.3

====

Biological target: Serine/threonine-protein kinase Sgk1 (Homo sapiens)
Sequence (O00141 whole entry): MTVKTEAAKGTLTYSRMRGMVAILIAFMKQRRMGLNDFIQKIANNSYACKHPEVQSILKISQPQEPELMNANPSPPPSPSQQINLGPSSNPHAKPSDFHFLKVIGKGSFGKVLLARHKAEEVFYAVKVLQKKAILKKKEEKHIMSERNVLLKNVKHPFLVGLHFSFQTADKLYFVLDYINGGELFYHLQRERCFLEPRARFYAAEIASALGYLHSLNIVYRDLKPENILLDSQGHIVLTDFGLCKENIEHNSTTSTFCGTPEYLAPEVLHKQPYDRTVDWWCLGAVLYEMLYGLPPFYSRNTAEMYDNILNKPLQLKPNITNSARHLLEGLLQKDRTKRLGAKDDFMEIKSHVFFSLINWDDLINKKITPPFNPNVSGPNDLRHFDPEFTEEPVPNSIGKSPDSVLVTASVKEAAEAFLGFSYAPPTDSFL
Test: Inhibition of recombinant human SGK1 expressed in baculovirus expression system using 5-carboxyfluorescein -RPRAATF-NH2 as substrate preincubated for 30 mins followed by substrate addition in presence of 10 uM ATP and measured after 60 mins by microfluidics assay
quantity.name: IC50 (nM)

The examples below pair each entry with its known result.
compound	IC50 (nM)
CC(C)N1CC[C@H](NC(=O)c2cc(-c3ccc(NS(=O)(=O)c4cccc(Cl)c4Cl)cc3)nc3[nH]ncc23)C1	4
N#Cc1ccc(Cl)cc1S(=O)(=O)Nc1ccc(-c2ncc3c(N)n[nH]c3n2)cc1	3
Cc1n[nH]c2nc(-c3ccc(NS(=O)(=O)c4cc(Cl)ccc4F)cc3)nc(OCC3CNCCO3)c12 (configuration not stated)	2
NC(=O)c1cc(-c2ccc(NS(=O)(=O)c3cccc(Cl)c3Cl)cc2)nc2[nH]ncc12	1
Cc1n[nH]c2nc(-c3ccc(NS(=O)(=O)c4cc(Cl)ccc4F)cc3)nc(OCCC(=O)N(C)C)c12	15

I: Cc1n[nH]c2nc(-c3ccc(NS(=O)(=O)c4cc(Cl)ccc4F)cc3)nc(OC3CCOCC3)c12
II: CCOc1nc(-c2ccc(NS(=O)(=O)c3cc(Cl)ccc3F)cc2)nc2[nH]nc(C)c12
Prompt: Lower value for measured IC50? Options: I , II Answer = label.
Response: I

A: O=C(NCCn1cnnc1)c1cc(-c2ccc(NS(=O)(=O)c3cccc(Cl)c3Cl)cc2)nc2[nH]ncc12
B: Cc1n[nH]c2nc(-c3ccc(NS(=O)(=O)c4cc(Cl)ccc4F)cc3)nc(OC3CC(C)(C)N(C)C(C)(C)C3)c12
Prompt: Lower value for measured IC50? Options: A , B Answer = label.
Response: B
(B: 2 nM, A: 3 nM)

A: Cc1n[nH]c2nc(-c3ccc(NS(=O)(=O)c4cc(Cl)ccc4F)cc3)nc(OCC3(CN)COC3)c12
B: Cc1n[nH]c2nc(-c3ccc(NS(=O)(=O)c4cc(Cl)ccc4F)cc3)nc(Oc3ccc(O)nc3)c12
Prompt: Between the two listed entries A and B , which has its IC50 at the higher number? Answer = label.
Response: B

1: Cc1n[nH]c2nc(-c3ccc(NS(=O)(=O)c4cc(Cl)ccc4F)cc3)nc(OC3CCC(=O)CC3)c12
2: Cc1n[nH]c2nc(-c3ccc(NS(=O)(=O)c4cc(Cl)ccc4F)cc3)nc(OC3CCCNC3)c12 (configuration not stated)
Prompt: Lower value for measured IC50? Options: 1 , 2 Answer = label.
Response: 2
(2: 1 nM, 1: 5 nM)

I: O=C(NCc1nn[nH]n1)c1cc(-c2ccc(NS(=O)(=O)c3cccc(Cl)c3Cl)cc2)nc2[nH]ncc12
II: Cc1n[nH]c2nc(-c3ccc(NS(=O)(=O)c4cc(Cl)ccc4F)cc3)nc(OCCCO)c12
Prompt: Lower value for measured IC50? Options: I , II Answer = label.
Response: II
(II: 2 nM, I: 4 nM)
